Please respond with reported self-cleavage for every item in the list.
B1: CPEB3 Ribozyme (parent)
chain: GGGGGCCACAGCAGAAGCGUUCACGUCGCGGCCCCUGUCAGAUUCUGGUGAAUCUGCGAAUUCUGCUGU

Variants of: B1
RUN_DESCRIPTION: self-cleavage, relative activity (ratio to wild type); higher = more cleavage; co-transcriptional
Write the value as a bare number.

Input: What value of self-cleavage has been reported for the following variant? GGGGUCCACAGCAGAAGCGUUCACGUCGCGGCCCCUGUCGGAUUCUGGUGAAUCUGCGAAUUCUGCUGU [G5U A40G]
Output: 0.171

Input: Look up self-cleavage for this variant: GGGGGCCACAGCAGAAGCGUUCACGUCGGGGCCCCUGUCAGAUUCUGGUGAAUCUGCGAAUUCAGCUGU [C29G U64A]
Output: 0.191

Input: Entry under review: GGGGGCCACAGCAGCAGCGUUCACGUCGCGGCCCCUGUCAGAUUCUGGUGAAUCUGCGGAUUCUGCUGU [A15C A59G] . Reported self-cleavage?
Output: 0.798

Input: GET /values?readout=self-cleavage&item= GGGGGCCACAGCAGAAGCGUUCACGUCGCGGCCCCUGUCGGAUUCUGGUGAAUCAGCGAAUUCUGCUGU [A40G U55A]
Output: 0.858

Input: I am curious: what self-cleavage value has been reported for GGGGGCCACAGCAGAAGCGUUCACGUCGCGGUCCCUGUCAGAUUCUGGUGAAUCUGCUAAUUCUGCUGU [C32U G58U] ?
Output: 0.995

Input: For the variant GGGGGCCACAGCAGAAGCGUUCACGUCGCGGCCCCUGUCAGAUUCUGGUCAAUCUGCGAAUUCUGCUGC [G50C U69C] , what self-cleavage is on record?
Output: 1.07

Input: Requested read-out: self-cleavage. Entry: GGGGGCCACAGCCGAAGCGUUCACGUCGCGGCCCCUGUCAGAUUCUGGUGAAUCUGCGAUUUCUGCUGU [A13C A60U]
Output: 0.276

Input: Need self-cleavage of GGGGGCCACAGCAGAAGCGUUCACGUCGCGGCCCCUGUCAGAUUCUGGUGAAUCUGUGAAUUCAGCUGU [C57U U64A] , thanks.
Output: 0.392
